# Target or test system: T1, human myostatin (mature, recombinant; R&D Systems) (human, UniProt O14793 267-375)
# T1 sequence: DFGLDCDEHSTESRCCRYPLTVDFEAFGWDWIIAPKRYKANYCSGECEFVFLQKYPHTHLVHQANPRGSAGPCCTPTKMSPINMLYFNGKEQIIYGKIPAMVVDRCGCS
# Method notes: cell-based or functional assay
Measure: ARE-luciferase IC50 (nM)

Binder	Measure	Value measured
2987_G09 (designed binder) MGVSDVPRDLEVVAATPTSLLISWTLPHAGRAHYYRITYGETGGNSPVQEFTVPGRGVTATISGLKPGVDYTITVYAVTVSSTKVIVYLPISINYRTEIDKPSQHHHHHH	ARE-luciferase IC50	0.05
2987_F01 (designed binder) MGVSDVPRDLEVVAATPTSLLISWSLPYAGHAHYYRITYGETGGNSPVQEFTVPGRGVTATISGLKPGVDYTITVYAVTLTRSKIIHYMPISINYRTEIDKPSQHHHHHH	ARE-luciferase IC50	0.05

[P] 2987_H02 (designed binder) MGVSDVPRDLEVVAATPTSLLISWSLPYAGHAHYYRITYGETGGNSPVQEFTVPGRGVTATISGLKPGVDYTITVYAVTLTKSKVIHYMPISINYRTEIDKPSQHHHHHH
[Q] 3006_A10 (designed binder) MGVSDVPRDLEVVAATPTSLLISWDAPGGLARYYRITYGETGGNSPVQEFTVIGRGSTATISGLKPGVDYTITVYAVTIDRDGVNHFAPISINYRTEIDKPSQHHHHHH
Query: Which has the smaller recorded ARE-luciferase IC50, P or Q ? State your choice using its label.
Result: P

Values were extracted from patent US20170088602A1.
